Test system: Lactococcus lactis
Experiment: Antibacterial activity against Lactococcus lactis MG1363 assessed as reduction in bacterial growth by broth microdilution method
Assay type: functional
Below, each of the compounds is paired with its reported MIC value.
Provide the reading as a plain figure in µg/mL.

// worked examples, MIC included
Smiles input | Target or test system | Measured
N[C@@H](Cc1c[nH]c2ccc(O)cc12)C(=O)O | Lactococcus lactis | 0.08
N[C@@H](Cc1c[nH]c2ccccc12)C(=O)O | Lactococcus lactis | 0.04
N[C@@H](Cc1c[nH]c2cc(Br)ccc12)C(=O)O | Lactococcus lactis | 0.08

## Task Returns the measured MIC for the input compound. Input: N[C@@H](Cc1c[nH]c2ccc(Br)cc12)C(=O)O
## Result 0.04

---

Test system: Staphylococcus aureus
Experiment: Antibacterial activity against Staphylococcus aureus LMG10147 assessed as reduction in bacterial growth by broth microdilution method
Assay type: functional
Below: a set of entries, each annotated with reported MIC.
# output: number + unit

Smiles input | Target or test system | MIC
N[C@@H](Cc1c[nH]c2ccc(O)cc12)C(=O)O | Staphylococcus aureus | 12.5 µg/mL
N[C@@H](Cc1c[nH]c2cc(Br)ccc12)C(=O)O | Staphylococcus aureus | 12.5 µg/mL
N[C@@H](Cc1c[nH]c2ccc(Br)cc12)C(=O)O | Staphylococcus aureus | 6.25 µg/mL

Attention now turns to another entry.
## Task Please look up its MIC: N[C@@H](Cc1c[nH]c2ccccc12)C(=O)O
## Result 6.25 µg/mL

---

Tested on: Staphylococcus aureus
Assay: Antibacterial activity against methicillin-resistant Staphylococcus aureus LMG15975 assessed as reduction in bacterial growth by broth microdilution method
Type: functional
MIC listing for selected compounds.
Just the number in µg/mL, nothing appended.

Smiles input | MIC [µg/mL]
N[C@@H](Cc1c[nH]c2cc(Br)ccc12)C(=O)O | 6.25
N[C@@H](Cc1c[nH]c2ccccc12)C(=O)O | 6.25

--- query ---
## Task Data request, read-out MIC, for N[C@@H](Cc1c[nH]c2ccc(Br)cc12)C(=O)O
## Result 3.13
